Value source: patent US11447496B2

- assay.info: Solubility in toluene, xylene and chloroform at 25° C.
- Type: physicochemical
- assay.context: toluene, organic solvent or mixture, in toluene, read-out: solubility in toluene (text summary of Table 1)
property: solubility

CC1(C)c2ccccc2N(c2nc(-c3ccccc3)nc(-c3cccc4c3-c3ccccc3C43c4ccccc4-c4ccccc43)n2)c2ccc3c4ccccc4n(-c4ccccc4)c3c21 [Example 6] | > 200 mg/mL
c1ccc(-c2nc(-c3cccc4c3-c3ccccc3C43c4ccccc4-c4ccccc43)nc(-n3c4ccccc4c4c5c6ccccc6n(-c6ccccc6)c5ccc43)n2)cc1 [Example 3] | > 200 mg/mL

Entry under test: CC1(C)c2ccccc2-c2ccc3c4ccccc4n(-c4nc(-c5ccccc5)nc(-c5cccc6c5-c5ccccc5C65c6ccccc6-c6ccccc65)n4)c3c21 [Example 8] . Its solubility was > 200 mg/mL

----------
- assay.info: Solubility in toluene, xylene and chloroform at 25° C.
- Assay type: physicochemical
- assay.context: toluene, organic solvent or mixture, in toluene, read-out: Solubility Toluene
property: solubility (mg/mL)

See these solved cases before continuing.
c1ccc(-c2nc(-c3cccc4c3-c3ccccc3C43c4ccccc4-c4ccccc43)nc(-n3c4ccccc4c4ccc5c6ccccc6n(-c6ccccc6)c5c43)n2)cc1 | 250
CC1(C)c2ccccc2N(c2nc(-c3ccccc3)nc(-c3ccc4c(c3)-c3ccccc3C43c4ccccc4-c4ccccc43)n2)c2cc3c(cc21)c1ccccc1n3-c1ccccc1 | 330
c1ccc(-c2nc(-c3ccc4c(c3)C3(c5ccccc5-4)c4ccccc4N(c4ccccc4)c4ccccc43)nc(-n3c4ccccc4c4cc5c6ccccc6n(-c6ccccc6)c5cc43)n2)cc1 | 220
c1ccc(-c2nc(-c3ccc4c(c3)C3(c5ccccc5Sc5ccccc53)c3ccccc3-4)nc(-n3c4ccccc4c4ccc5c6ccccc6n(-c6ccccc6)c5c43)n2)cc1 | 285
[2H]c1cc2c3ccccc3n(-c3nc(-c4ccccc4)cc(-c4ccc5c(c4)-c4ccccc4C54c5ccccc5-c5ccccc54)n3)c2c2c3ccccc3n(-c3ccccc3)c12 | 268

a. c1ccc(-c2cc(-c3ccc4c(c3)-c3ccccc3C43c4ccccc4-c4ccccc43)nc(N3c4ccccc4Oc4ccc5c(c43)c3ccccc3n5-c3ccccc3)n2)cc1
b. c1ccc2c(c1)c1ccccc1n2-c1ccc(-c2ccc(-n3c4ccccc4c4ccccc43)cc2)cc1 [CBP, 4,4′-bis(9H-carbazol-9-yl)biphenyl, reference compound]
Lookup: Could you tell me which of a and b has the lower solubility reading? // output: label of the selected item
Found: b
(b: 130 mg/mL, a: 305 mg/mL)

----------
- assay.info: Solubility in toluene, xylene and chloroform at 25° C.
- Type: physicochemical
- assay.context: toluene, organic solvent or mixture, in toluene, read-out: Solubility Toluene
property: solubility (mg/mL)

CC1(C)c2ccccc2N(c2nc(-c3ccccc3)nc(-c3cccc4c3-c3ccccc3C43c4ccccc4-c4ccccc43)n2)c2ccc3c4ccccc4n(-c4ccccc4)c3c21 | 350
c1ccc(-c2nc(-c3cccc4c3-c3ccccc3C43c4ccccc4-c4ccccc43)nc(-n3c4ccccc4c4c5c6ccccc6n(-c6ccccc6)c5ccc43)n2)cc1 | 200
CC1(C)c2ccccc2-c2ccc3c4ccccc4n(-c4nc(-c5ccccc5)nc(-c5cccc6c5-c5ccccc5C65c6ccccc6-c6ccccc65)n4)c3c21 | 400

a. CC1(C)c2ccccc2N(c2ccccc2)c2cc3c(cc21)N(c1nc(-c2ccccc2)cc(-c2cccc4c2-c2ccccc2C42c4ccccc4-c4ccccc42)n1)c1ccccc1C3(C)C
b. c1ccc(-c2nc(-c3cccc4c3-c3ccccc3C43c4ccccc4-c4ccccc43)nc(-n3c4ccccc4c4cc5c6ccccc6n(-c6ccccc6)c5cc43)n2)cc1
Lookup: Which entry shows the lesser value of solubility here, a or b ? In your reply, give the label of the chosen option.
Found: b
(b: 205 mg/mL, a: 362 mg/mL)
